Entry source: PubChem BioAssay AID504652

biological target: D(1A) dopamine receptor (Homo sapiens) (UniProt P21728); assay: Antagonist of Human D 1 Dopamine Receptor: qHTS; conditions: HEK293 TREx D1 cells, calcium flux, dopamine EC80; at 10 µM
Sequence (P21728 whole entry, looked up): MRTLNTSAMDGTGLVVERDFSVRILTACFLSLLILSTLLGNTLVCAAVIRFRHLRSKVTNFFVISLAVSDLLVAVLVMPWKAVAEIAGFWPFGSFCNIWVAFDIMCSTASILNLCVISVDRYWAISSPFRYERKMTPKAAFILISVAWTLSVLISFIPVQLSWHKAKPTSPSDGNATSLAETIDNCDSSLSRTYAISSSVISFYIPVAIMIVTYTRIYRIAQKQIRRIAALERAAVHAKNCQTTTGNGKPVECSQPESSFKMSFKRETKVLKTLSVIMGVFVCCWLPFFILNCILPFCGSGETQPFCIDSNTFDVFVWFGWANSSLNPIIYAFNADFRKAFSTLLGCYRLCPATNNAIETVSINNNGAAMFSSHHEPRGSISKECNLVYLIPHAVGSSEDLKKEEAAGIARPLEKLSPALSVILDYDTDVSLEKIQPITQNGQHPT
The whole screen tested about 360,000 compounds, of which about 11,000 (3.1%) were called active. No stated cut-off is given here; in the data, active means activity change below about -30%; inactive means the rest. This is one part of a sample in which actives are shown more often than they occur.
Pick one: t (active), f (inactive)

Incoming: Please share the test call associated with Cc1ccn2c(Nc3ccc4c(c3)OCCO4)c(-c3ccc(C)s3)nc2c1 .
Outgoing: f

Incoming: Hey, what did the test say about O=C(C1CCCN(S(=O)(=O)c2cccc3nonc23)C1)N1CCN(c2ccccc2F)CC1 (stereo not given) ?
Outgoing: f

Incoming: Given CCn1cc(C(=O)NCc2ccc3c(c2)OCO3)c2cc(OC)c(OC)cc2c1=O , state the outcome it received in this test.
Outgoing: t

Incoming: Outcome? CN1CCN(C2=NCCO2)CC1
Outgoing: t

Incoming: Which outcome did this test record for the molecule Cc1cc(Cl)c(S(=O)(=O)N(C)C)cc1OCC(N)=O ?
Outgoing: f

Incoming: For O=C(CN1C(=O)CCn2nc(-c3ccccc3)cc21)NCc1ccccc1 , which call appears in the assay record?
Outgoing: f

Incoming: In this assay, the call recorded for CCn1cc(C(=O)NCC2COc3ccccc3O2)c2cc(OC)c(OC)cc2c1=O (stereo not given) was what?
Outgoing: f

Incoming: Name the outcome recorded for CCc1nc(-c2cc(S(=O)(=O)N3CCN(c4ccc(OC)cc4)CC3)ccc2OC)no1 in the assay.
Outgoing: t

Incoming: Please state the recorded outcome for this molecule: COc1ccccc1-n1c(C)nc2cc(C(=O)NCc3ccc4c(c3)OCO4)ccc21
Outgoing: t

Incoming: Called result for COc1cc(-n2c(C)nc3cc(C(=O)NCc4ccco4)ccc32)cc(OC)c1OC
Outgoing: f
